src = PubChem BioAssay (NCATS)

System: KB-3-1
Assay: Cytotoxic Profiling of Annotated Libraries Using Quantitative High-Throughput Screening (AID 1296008); also: nearly all actives have a fitted effect of over 60% in size
Conditions: Five cell lines viability, CellTiter-Glo ATP luminescence, 48-72 h
Results filed as inconclusive are left out. The source made the active and inactive calls. Calls follow the shape of the dose curve; as a rule, active = well fitted inhibition curve with a large enough effect; inconclusive = small, poorly fitted or top-dose-only effect; inactive = flat fitted curve, though single readings scatter.
The reply should be one of these categories: active, inactive

O=c1cccc2n1CC1CNC[C@H]2C1: inactive
CC1=NN=C(c2ccc(N)cc2)c2cc3c(cc2C1)OCO3: inactive
CC(C)[C@]12O[C@H]1[C@@H]1O[C@]13[C@]1(O[C@H]1C[C@H]1C4=C(CC[C@@]13C)C(=O)OC4)[C@@H]2O: active

Recorded call for `CC[C@H]1C=CC=CC[C@@H](C)[C@H](O)[C@@](C)(O)C(=O)[C@@H](C)[C@H](O)[C@@H](C)C(=O)[C@@H](C)[C@H](O)[C@@H](C)C=CC(=O)O[C@@H]2[C@@H](C)[C@H](CC1)O[C@]1(CC[C@H](C)[C@H](C[C@@H](C)O)O1)[C@H]2C` ? active

* * *

Assay: Primary qHTS for Huh7 cytotoxicity: counterscreen for inhibitors of MERS-S pseudotyped particle cell entry (AID 1479147)
Details: cell viability read-out; series mostly up to 57.1 µM
Records with an inconclusive call do not appear. Activity calls are given as the source filed them. Calls come from the whole dose curve.
Allowed answers: 1.0 (active), 0.0 (inactive)

Check out these entries, answers already filled in.
Cc1c(C)c2c(c(C)c1OC(=O)c1cccnc1)CC[C@@](C)(CCC[C@H](C)CCC[C@H](C)CCCC(C)C)O2: 0.0
O=C(c1cc(Cc2n[nH]c(=O)c3ccccc23)ccc1F)N1CCN(C(=O)C2CC2)CC1: 0.0
CN(C(=O)C(Cl)Cl)c1ccc(OC(=O)c2ccco2)cc1: 0.0
C[N+](C)(C)CC(=O)O: 0.0
CC(=O)[O][Hg][c]1ccccc1: 1.0

Recorded test call requested for Cc1nnc(C(C)C)n1C1CC2CCC(C1)N2CC[C@H](NC(=O)C1CCC(F)(F)CC1)c1ccccc1 (some centres undefined) 0.0

Just curious, what result did `CC(C)(C)c1nnc(NS(=O)(=O)c2ccccc2)s1` get here? 0.0

What classification did `CCCCCCCCCCCCCCCC[N+](C)(C)C` end up with in this test? 0.0

Check the results log: what was the call for `C[C@@H]1CN(c2c(F)c(N)c3c(=O)c(C(=O)O)cn(C4CC4)c3c2F)C[C@H](C)N1` ? 0.0

* * *

Experiment: qHTS of pediatric cancer cell lines to identify multiple opportunities for drug repurposing: Primary screen for Rh18 cells (AID 1347102); also: nearly all actives have a fitted effect of over 65% in size
Settings: Rh18 rhabdomyosarcoma viability, CellTiter-Glo luminescence, 48 h; series mostly up to 46 µM
Records with an inconclusive call do not appear. Calls of active or inactive are those of the source. Calls come from the whole dose curve; as a rule, active = well fitted cell-killing curve with a large enough effect; inconclusive = small, poorly fitted or top-dose-only effect; inactive = flat fitted curve, though single readings scatter.
Form entry, call: pick from active, inactive

Example entries and their recorded answers appear below.
Fc1cc(Br)ccc1CBr: inactive
CC(C)(C)NC[C@H](O)c1ccc(O)cc1Cl: inactive
O=[N+]([O-])/N=C1\NCCN1Cc1ccc(Cl)nc1: inactive
O=S(=O)(c1ccc(Cl)cc1)c1ccc(Cl)cc1: inactive
CC(C)(O)C(=O)Nc1ccc([N+](=O)[O-])c(C(F)(F)F)c1: inactive

Fill in: this test's call for `C=CC(=O)NCNC(=O)C=C` is ___ inactive

I would be grateful if you could indicate the recorded call for `O=C1C(I)=CC(=C(c2cc(I)c(O)c(I)c2)c2ccccc2C(=O)O)C=C1I` . inactive

Entry `CC(=O)[O][Hg][c]1ccccc1` : call = ? active

In this assay, the call recorded for `CN(C)[C@@H]1C(=O)C(C(N)=O)=C(O)[C@@]2(O)C(=O)C3=C(O)c4c(O)cccc4[C@@](C)(O)[C@H]3[C@H](O)[C@@H]12` was what? inactive

Record lookup: outcome of this test for `O=c1cccc2n1CC1CNC[C@H]2C1` ? active

Entry `CCCCCCCCc1ccc(O)cc1` : call = ? inactive

Record lookup: outcome of this test for `O=C(Nc1ccncc1)C(=O)c1cn(Cc2ccc(Cl)cc2)c2ccccc12` ? inactive

Any idea what this test logged for `COc1ccc(N(C(=O)Oc2c(C)cccc2C)c2ccnc(Nc3ccc(N4CCN(C)CC4)cc3)n2)c(OC)c1` ? inactive

* * *

Assay: qHTS of pediatric cancer cell lines to identify multiple opportunities for drug repurposing: Primary screen for BT-37 cells (AID 1347094)
Conditions: BT-37 viability, CellTiter-Glo luminescence, 48 h; series mostly up to 57.3 µM
Experimental: Drug repurposing or repositioning has been offered as a strategy for drug development in oncology programs. This approach has special potential for childhood cancers and other rare or orphan diseases, where the expected return on new drug development has been a disincentive to pharmaceuticals. […] We employed a titration-based paradigm (quantitative high-throughput screening or qHTS), where all compounds were tested at multiple concentrations for their effect on cell viability. […]
Inconclusive results are not listed. Active and inactive are the calls of the source. The call rests on the fitted dose curve; in most records, active means well fitted cell-killing curve with a large enough effect; inconclusive means small, poorly fitted or top-dose-only effect; inactive means flat fitted curve, though single readings scatter.
Form entry, call: pick from true = active, false = inactive

Reference set (7 entries):
Cc1ccc(Cl)c(O)c1: false
CC(=O)[O][Hg][c]1ccccc1: true
CCCN1CCO[C@@H]2c3cc(O)ccc3OC[C@@H]21: true
c1cc2ccc3cccc4ccc(c1)c2c34: false
C1CCC(NC2CCCCC2)CC1: false
CC(C)[C@]12O[C@@H]1[C@@H]1O[C@]13[C@]1(O[C@H]1C[C@@H]1C4=C(CC[C@@]13C)C(=O)OC4)[C@H]2O: true
C[C@]12CCC(=O)C(O)=C1CC[C@@H]1[C@H]3CCC(=O)[C@@]3(C)CC[C@@H]12: false

Pending molecule:
Recorded test call requested for `CC(C)N(CCNC(=O)CN1CCCC1=O)C(C)C` false

* * *

Assay: Quantitative High-Throughput drug screen in 47 multiple myeloma cell lines against the NCATS MIPE library collection: KMS11_JCRBsus cell viability assay (AID 1919873); also: nearly all actives have a fitted effect of over 50% in size
Details: KMS11 myeloma viability, CellTiter-Glo ATP luminescence, 48 h; series mostly up to 45.8 µM
Source text: PI: Beverly A. Mock Ph.D. Laboratory of Cancer Biology and Genetics, Center for Cancer Research, National Cancer Institute, National Institute of Health, Bethesda, Maryland […] 5; Detector; 425V; Luminescence; Viewlux PerkinElmer. […] 1. […] Briefly, the corresponding myeloma cell lines were screened in 1,536-well plates with 500 cells, 5-uL per well for inhibition of cell viability (assessed by measuring ATP levels with CellTiterGlo). […]
Inconclusive results are not listed. Active and inactive are the calls of the source. Calls come from the whole dose curve; as a rule, active = well fitted cell-killing curve with a large enough effect; inconclusive = small, poorly fitted or top-dose-only effect, or effect the other way; inactive = no such curve, though single readings can be large or run the other way.
Lab note: assign the record to one of active, inactive

Please let me know the test result on file for `Oc1ccc2c3c1O[C@H]1c4[nH]c5c(c4C[C@@]4(O)[C@@H](C2)N(CC2CC2)CC[C@]314)C[C@@]1(O)[C@H]2Cc3ccc(O)c4c3[C@@]1(CCN2CC1CC1)[C@H]5O4` . inactive

Please indicate how the test categorized `C[C@@H]1CC[C@H]2[C@@H](C)C(=O)O[C@@H]3O[C@@]4(C)CC[C@H]1[C@]32OO4` . inactive

So what was the verdict on `Cc1c(C(=O)Nc2cccc(C(F)(F)F)c2)cc(-c2ccccc2)n1CCCN1CCOCC1` in this test? active

State the result this test recorded for `CC1=C(O)C(=O)C=C2C1=CC=C1[C@@]2(C)CC[C@@]2(C)[C@@H]3C[C@](C)(C(=O)O)CC[C@]3(C)CC[C@]12C` . active

Identify the outcome logged in this assay for the molecule shown: `CCc1c(C(=O)C(N)=O)c2c(OCC(=O)O)cccc2n1Cc1ccccc1` inactive

Which outcome was entered for the molecule `Cc1ccccc1-n1c(Cn2ncc3c(N)ncnc32)nc2cccc(C)c2c1=O` in this test? active

What did the test return for `O=C(O)CNC(=O)c1c(O)c2ccccc2n(Cc2ccccc2)c1=O` ? inactive

Which result was noted for this molecule in the test: `CCN1CCN(C(=O)Cc2ccc(Nc3ncc(F)c(Nc4ccc(C(=O)Nc5ccccc5Cl)cc4)n3)cc2)CC1` active

Write down the call the test reported for this molecule. Item: `CCCN1CCO[C@@H]2c3cc(O)ccc3OC[C@@H]21` inactive

Please state the recorded outcome for this molecule: `CC[C@@H](C(N)=O)N1CCCC1=O` inactive

For NC1=NC(=O)N2CC12 (stereo not drawn) , which call appears in the assay record? inactive

Tell me the assay call for `O=C1CCC[C@@H]2[C@H]3CCCN4CCC[C@@H](CN12)[C@@H]34` please. inactive

Check the results log: what was the call for `CC(=Cc1csc(C)n1)[C@@H]1C[C@H]2O[C@@H]2CCC[C@H](C)[C@@H](O)[C@@H](C)C(=O)C(C)(C)[C@@H](O)CC(=O)O1` ? inactive

* * *

System: HEK293
Assay: Cytotoxic Profiling of Annotated Libraries Using Quantitative High-Throughput Screening (AID 1296008); also: nearly all actives have a fitted effect of over 60% in size; as to max response: % is scaled to controls: 0 for no effect and ±100 for the full control effect
Details: Five cell lines viability, CellTiter-Glo ATP luminescence, 48-72 h; hits give low values
Records with an inconclusive call do not appear.
For each of the compounds below, state its max response.
One number for each entry, in %.

// batch mode: one max response value per listed entry
1. CC(C)(O)C(=O)Nc1ccc([N+](=O)[O-])c(C(F)(F)F)c1
2. CC(O)CN1CCN(CC(=O)[O-])CCN(CC(=O)[O-])CCN(CC(=O)[O-])CC1.[Gd+3] (stereo not drawn)
3. CC(=Cc1csc(C)n1)[C@@H]1C[C@H]2O[C@@H]2CCC[C@H](C)[C@@H](O)[C@@H](C)C(=O)C(C)(C)[C@@H](O)CC(=O)O1

[-21.8, -21.1, -79]
